# recombinant UMI read abundance (log10) listing for each entry below
Test: recombinant UMI read abundance after kanamycin selection (control-corrected) (log10(CPM+1)); higher = more efficient recombination; extreme values may be limits of the assay; sequences stand for … in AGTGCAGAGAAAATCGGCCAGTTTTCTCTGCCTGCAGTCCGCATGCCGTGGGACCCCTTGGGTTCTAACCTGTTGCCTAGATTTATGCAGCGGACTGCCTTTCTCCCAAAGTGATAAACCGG…AGGTTGGTTTCACT; site = the 11-nt donor;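 note: IS621 bridge recombinase in Escherichia coli cells against a fixed T5 target plasmid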

>  <sequence>
TACTTGACATGGACCGGTTTTCCCGGTAATCCGTATTTGGT (site TACTTGACTAA)

>  <recombinant UMI read abundance (log10)>
0.109

$$$$
>  <sequence>
CCCACATCATGGACCGGTTTTCCCGGTAATCCGTATTTGTC (site CCCAAATCTGA)

>  <recombinant UMI read abundance (log10)>
0

$$$$
>  <sequence>
GCGAAAACATGGACCGGTTTTCCCGGTAATCCGTATTTGCT (site GCGCAAACTAG)

>  <recombinant UMI read abundance (log10)>
0

$$$$
>  <sequence>
CGTAATACATGGACCGGTTTTCCCGGTAATCCGTATTTGGC (site CATAATACTGC)

>  <recombinant UMI read abundance (log10)>
0

$$$$
>  <sequence>
TGGACGGCATGGACCGGTTTTCCCGGTAATCCGTATTTGGC (site TGGTCGGCTGC)

>  <recombinant UMI read abundance (log10)>
0.392

$$$$
>  <sequence>
GAGTTTCCATGGACCGGTTTTCCCGGTAATCCGTATTTGCG (site GAGTTTCCTCG)

>  <recombinant UMI read abundance (log10)>
0.572

$$$$
>  <sequence>
TACGTGACATGGACCGGTTTTCCCGGTAATCCGTATTTGAC (site TACGTGACTGT)

>  <recombinant UMI read abundance (log10)>
1.74

$$$$
>  <sequence>
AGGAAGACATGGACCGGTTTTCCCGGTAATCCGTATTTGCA (site GGGAAGGCTTG)

>  <recombinant UMI read abundance (log10)>
0

$$$$
>  <sequence>
CAATTGGCATGGACCGGTTTTCCCGGTAATCCGTATTTGGA (site CATTTGGCTTC)

>  <recombinant UMI read abundance (log10)>
0.313

$$$$

Recorded values, source the supplement of paper PMC11208160.
